- Assay: Fluorescence emission spectrum (maximum emission wavelength)
- Type: physicochemical
- Experimental conditions: MeCN, 30 μM
Task for the reader: assign each of the following molecules its reported λem, max Em.
# unit: nm | format: bare number

### Prompt Suppose we examine the molecule CCN(CC)c1ccc(-c2c3cccc[n+]3cn2-c2ccc(OC)cc2)cc1.[Cl-] [Compound 6] ; what λem, max Em value has been reported?
### Response 565

### Prompt I am curious: what λem, max Em value has been reported for Cc1ccc(-n2cc(-c3cccc4cn(-c5ccc(N(C)C)cc5)c[n+]34)nn2)cc1.[Cl-] [Compound 11] ?
### Response 605

### Prompt // λem, max Em lookup, key: COc1ccc(-n2cc3cccc(-c4ccc(N(C)C)cc4)[n+]3c2)cc1 [Compound 21]
### Response 540

### Prompt Quick one: λem, max Em for CCN(CC)c1ccc(-n2cc3cccc(-c4cn(-c5ccc(C)cc5)nn4)[n+]3c2)cc1.[Cl-] [Compound 12] ?
### Response 600

###

- Assay: Fluorescence quantum yield, integrating sphere
- Type: physicochemical
- Experimental conditions: MeCN, 30 μM
Give […]F (quantum yield) for every item shown.
State the result as a value with its unit after it.

### Prompt Recorded […]F (quantum yield) of Cc1ccc(-n2cc3cccc(-c4cn(-c5ccc(N(C)C)cc5)nn4)[n+]3c2)cc1.[Cl-] , please.
### Response 0%

### Prompt Would you mind telling me what […]F (quantum yield) value was observed for CCN(CC)c1ccc(-n2cc(-c3cccc4cn(-c5ccc(C)cc5)c[n+]34)nn2)cc1.[Cl-] ?
### Response 0%

### Prompt Would you mind telling me what […]F (quantum yield) value was observed for CCN(CC)c1ccc(-n2cc3cccc(-c4cn(-c5ccc(C)cc5)nn4)[n+]3c2)cc1.[Cl-] ?
### Response 30%

### Prompt Reported […]F (quantum yield), compound COc1ccc(-n2cc3cccc(-c4ccc(N(C)C)cc4)[n+]3c2)cc1 : ____
### Response 10%

### Prompt Quick one: […]F (quantum yield) for CCN(CC)c1ccc(-n2c[n+]3ccccc3c2-c2ccc(OC)cc2)cc1.[Cl-] ?
### Response 0%

### Prompt State the recorded […]F (quantum yield) for this entry: CCN(CC)c1ccc(-c2c3cccc[n+]3cn2-c2ccc(OC)cc2)cc1.[Cl-]
### Response 59%

### Prompt What value of […]F (quantum yield) has been reported for the following compound? Cc1ccc(-n2cc(-c3cccc4cn(-c5ccc(N(C)C)cc5)c[n+]34)nn2)cc1.[Cl-]
### Response 35%

###

So I've got a bunch of molecules here, and I need their λabs, max Abs values.
- Assay: Ultraviolet-visible light spectrum (maximum absorbance wavelength)
- Format: physicochemical
- Experimental conditions: H2O pH = 2.5, 30 μM
Your answer should be a number followed by the unit of measure.

### Prompt Fill in the blank: the reported λabs, max Abs of Cc1ccc(-n2cc(-c3cccc4cn(-c5ccc(N(C)C)cc5)c[n+]34)nn2)cc1.[Cl-] [Compound 11] is ____.
### Response 340 nm

### Prompt Look up λabs, max Abs: CCN(CC)c1ccc(-c2c3cccc[n+]3cn2-c2ccc(OC)cc2)cc1.[Cl-] [Compound 6]
### Response 350 nm

### Prompt Consider the molecule CCN(CC)c1ccc(-n2c[n+]3ccccc3c2-c2ccc(OC)cc2)cc1.[Cl-] [Compound 7] and give its measured λabs, max Abs.
### Response 340 nm

### Prompt Data request, read-out λabs, max Abs, for Cc1ccc(-n2cc3cccc(-c4cn(-c5ccc(N(C)C)cc5)nn4)[n+]3c2)cc1.[Cl-] [Compound 13]
### Response 340 nm
